# assaySystem: T1, c-Met ECD/Fc (R&D Systems #358 MT), human (human, UniProt P08581 25-932)
# T1 construct: extracellular domain; Bought fusion protein; also called c-Met ECD-Fc (human); human Met ECD-Fc; not shown: Fc part of the bought fusion protein
# T1 sequence (P08581 25-932): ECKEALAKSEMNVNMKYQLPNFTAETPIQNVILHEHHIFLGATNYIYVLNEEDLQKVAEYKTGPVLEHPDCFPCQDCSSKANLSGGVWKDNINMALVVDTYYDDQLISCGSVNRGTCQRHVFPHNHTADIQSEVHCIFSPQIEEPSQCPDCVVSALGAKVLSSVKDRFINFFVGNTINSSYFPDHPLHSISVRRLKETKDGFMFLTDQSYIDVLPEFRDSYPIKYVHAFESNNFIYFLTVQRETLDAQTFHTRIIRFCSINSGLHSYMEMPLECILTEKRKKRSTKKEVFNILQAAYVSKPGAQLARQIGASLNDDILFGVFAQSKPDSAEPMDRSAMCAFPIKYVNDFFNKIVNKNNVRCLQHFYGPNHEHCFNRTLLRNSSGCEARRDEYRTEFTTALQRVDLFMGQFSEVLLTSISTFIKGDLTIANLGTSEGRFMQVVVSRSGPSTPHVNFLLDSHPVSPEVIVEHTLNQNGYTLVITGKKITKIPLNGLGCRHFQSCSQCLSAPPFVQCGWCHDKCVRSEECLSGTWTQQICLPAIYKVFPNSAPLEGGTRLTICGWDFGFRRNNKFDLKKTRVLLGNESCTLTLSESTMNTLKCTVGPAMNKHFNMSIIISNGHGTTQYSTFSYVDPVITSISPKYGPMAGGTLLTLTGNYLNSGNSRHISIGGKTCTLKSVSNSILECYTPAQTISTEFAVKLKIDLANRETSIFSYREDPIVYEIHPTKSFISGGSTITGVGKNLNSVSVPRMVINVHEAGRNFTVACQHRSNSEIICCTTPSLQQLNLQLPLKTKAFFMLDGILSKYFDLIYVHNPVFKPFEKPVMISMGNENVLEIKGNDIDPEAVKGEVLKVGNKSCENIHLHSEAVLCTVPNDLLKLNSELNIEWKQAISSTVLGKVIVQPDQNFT
# testDescription: SPR (BIACORE 3000), human c-Met ECD-Fc immobilized, antibody injected
measure: koff (s⁻¹)
# unit: s⁻¹ | format: bare number

Below, each entry is followed by its recorded koff result.
| binder | units | koff |
| --- | --- | --- |
| anti-c-Met monoclonal antibody 8.70.2 (antibody, V domains shown, Human IgG2 kappa; also called hybridoma 8.70.2 (LN 15885); PTA-5028) VH: QLQLQESGPGLVKPSETLSLTCTVSGGSISSSSYYGGWIRQPPGKGLDWIGSIYYSGNTYYNPSLKSRVTISVDTSKNQFSLKLSSVTAADTAVYYCARHSWDYFDYWDQGTLVTVSS VL: DIQMTQSPSSVSASVGDRVTITCRASQGISSWLAWYQQKPGKAPKLLIYAASSLQSGVPSRFSGSGSGTDFTLTISSLQSEDFATYYCQQANSFPITFGPGTKVEIKR | s⁻¹ | 6.1e-05 |
| anti-c-Met monoclonal antibody 9.1.2 (antibody, V domains shown, Human IgG2 kappa; also called hybridoma 9.1.2 (LN 15884); PTA-5027) VH: QVQLQESGPGLVKPSQTLSLTCTVSGGSISSGGYYWSWIRQHPGKGLEWIGYIYYSGSTYYNPSLKSRVTISVDTSKNQFSLKLSSVTAADTAVYYCARDGPLGYCSSTSCPVTGEYYYYGMDVWGQGTTVTVSS VL: EIVLTQSPGTLSLSPGERATLSCRASQSVSNNYLAWYQQKPGQAPRLLIFGASSRATGIPDRFSGSGSGTDFTLTISRLEPEDFAVYYCQQYDISPMYSFGQGTKLEMKR | s⁻¹ | 6.8e-05 |
| anti-c-Met monoclonal antibody 13.3.2L-A91T, H-E42K, S97T (antibody, human IgG2, kappa, V domains shown, positions 42, 97, 14 and 91 count from the N-terminal amino acid and may not count on the entry with its leader) VH: QVQLVQSGAEVKKPGASVKVSCKASGYTFTSYGFSWVRQAPGQGLEWMGWISASNGNTYYAQKLQGRVTMTTDTSTSTAYMELRSLRSDDTAVYYCARVYADYADYWGQGTLVTVSS VL: DIQMTQSPSSVSASVGDRVTITCRASQGINTWLAWYQQKPGKAPKLLIYAASSLKSGVPSRFSGSGSGTDFTLTISSLQPEDFATYYCQQANSFPLTFGGGTKVEIKR | s⁻¹ | 0.00018 |

Consider the additional binder presented here.
## Task Assign koff to the following record: anti-c-Met monoclonal antibody 8.90.3 (antibody, V domains shown, Human IgG2 kappa) VH: EVQLVESGGGLVQPGGSLRLSCAASGFTFSRYSMNWVRQAPGKGLEWVSYISSRSSTIYYADSVKGRFTMSRDNAKNSLYMQMNSLRDEDTAVYYCGYGDYDYFDYWGQGTLVTVSS VL: DIQMTQSPSSVSASVGDRVIITCRASQGISSWLAWYQQKPGKAPKLLIYAASSLKSGVPSRFSGSGSGTDFTVTISSLQPEDFATYYCQQSNSLPWTFGQGTKVEIKR
## Result 0.00015
